B1: PPP2R2B (parent)
chain: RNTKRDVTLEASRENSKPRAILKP

variants of: B1; experiment: protein stability index of a GFP-peptide fusion (GPS, HEK-293T) (PSI 1-6); higher = more stable; conditions: c terminus: a fixed tail appended;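 note: lentivirally expressed fusions sorted by FACS into six bins by GFP to DsRed ratio, PSI derived from sequencing read proportions per bin multiplied by bin number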
protein stability index for assorted variants

# VARIANT NOTATION, protein stability index
rows = [
    ("R13F", 3.98),
    ("K23L", 3.91),
    ("L22F", 4.5),
    ("K17P", 5.27),
    ("R19C", 4.69),
    ("K17H", 4.47),
    ("N2A", 4.31),
    ("L9Y", 4.52),
]
